Tested on: guinea pig tracheal rings
Experiment: Potentiation of isoproterenol relaxation of acetylcholine contraction, guinea pig tracheal rings
Conditions: Cavia porcellus, with 50 μM compound 13 and 10 μM bumetanide; read-out: EC50 of isoproterenol-mediated relaxation of an acetylcholine contraction
observation-type: EC50 (nM)
Answers are plain numbers, in nM.

Exercise: Please report EC50 for the following compound: CC(C)NCC(O)c1ccc(O)c(O)c1 (stereo not shown) [isoproterenol]
Key: 0.477

----------
Tested on: guinea pig tracheal rings
Assay: Potentiation of isoproterenol relaxation of acetylcholine contraction, guinea pig tracheal rings
Conditions: Cavia porcellus, vehicle; read-out: EC50 of isoproterenol-mediated relaxation of an acetylcholine contraction
observation-type: pEC50
One number for each entry, as −log10 of the molar value.

Exercise: Please report pEC50 for the following compound: CC(C)NCC(O)c1ccc(O)c(O)c1 (stereo not shown)
Key: 8.22
